assay: qHTS of pediatric cancer cell lines to identify multiple opportunities for drug repurposing: Primary screen for SK-N-MC cells (AID 1347093); settings: SK-N-MC viability, CellTiter-Glo luminescence, 48 h; series mostly up to 46 µM
Inconclusive results are not listed. Calls of active or inactive are those of the source. Calls come from the whole dose curve; as a rule, active = well fitted cell-killing curve with a large enough effect; inconclusive = small, poorly fitted or top-dose-only effect; inactive = no such curve, though single readings can be large or run the other way.
Outcome codes: Yes for active, No for inactive

{"CHEM SMILES": "NC(=O)Cc1cccc(C(=O)c2ccccc2)c1N", "DISCRETE LABEL": "No"}
{"CHEM SMILES": "Nc1ncn([C@H]2C[C@H](O)[C@@H](CO)O2)c(=O)n1", "DISCRETE LABEL": "No"}
{"CHEM SMILES": "O=C1CCc2ccc(OCCCCN3CCN(c4cccc(Cl)c4Cl)CC3)cc2N1", "DISCRETE LABEL": "No"}
{"CHEM SMILES": "CC(=O)N1CCN(c2ccc(OC[C@H]3CO[C@](Cn4ccnc4)(c4ccc(Cl)cc4Cl)O3)cc2)CC1", "DISCRETE LABEL": "Yes"}
{"CHEM SMILES": "O=Nc1c(-c2c(O)[nH]c3cc(Br)ccc23)[nH]c2ccccc12", "DISCRETE LABEL": "Yes"}
{"CHEM SMILES": "CC(C)c1ccc2c(c1)c(SC(C)(C)C)c(CC(C)(C)C(=O)O)n2Cc1ccc(Cl)cc1", "DISCRETE LABEL": "Yes"}
{"CHEM SMILES": "CC1=C(C(=O)O)N2C(=O)[C@@H](NC(=O)[C@H](N)C3=CCC=CC3)[C@H]2SC1", "DISCRETE LABEL": "No"}
{"CHEM SMILES": "CC(C)c1nc(CN(C)C(=O)N[C@H](C(=O)N[C@@H](Cc2ccccc2)C[C@H](O)[C@H](Cc2ccccc2)NC(=O)OCc2cncs2)C(C)C)cs1", "DISCRETE LABEL": "Yes"}
